Let's go through some recorded IC50 values for Mineralocorticoid receptor (Homo sapiens) together.
Experimental Readout: IC50 (nM)

Consider the worked cases shown below.
1. CC(C)(C[C@@](O)(Cc1cc2ccncc2[nH]1)C(F)(F)F)c1cc(F)ccc1O; 210
2. COc1ccc(F)cc1C(C)(C)CC(O)(Cc1cc2ccncc2[nH]1)C(F)(F)F (stereo not given); 580
3. CC(C)(CC(O)(Cc1cc2ccncc2[nH]1)C(F)(F)F)c1ccccc1 (stereo not given); 810
4. CC(C)(CC(O)(Cc1cc2ccncc2[nH]1)C(F)(F)F)c1cccc2c1OCC2 (stereo not given); 780

I. CC(C)(CC(O)(Cc1cc2ccncc2[nH]1)C(F)(F)F)c1cc(Cl)cc2c1OCC2 (stereo not given)
II. CC(C)(CC(O)(Cc1cc2ccncc2[nH]1)C(F)(F)F)c1cc(-c2cncnc2)ccc1O (stereo not given)
stdin: Out of I and II , name the one with the higher IC50. Returns: label corresponding to the selected item.
stdout: II
